procedure-text: total protein half-life in vivo (active degradation + dilution); higher = more stable protein
settings: wild type E. coli NCM3722; growth: C-lim chemostat; doubling time 12 h
Reported total protein half-life in vivo by item:
Give a bare numeral; the unit h is implied.

Examples with their reported total protein half-life in vivo follow.
sequence-data	reported-result
MRVLVVEDNALLRHHLKVQIQDAGHQVDDAEDAKEADYYLNEHIPDIAIVDLGLPDEDGLSLIRRWRSNDVSLPILVLTARESWQDKVEVLSAGADDYVTKPFHIEEVMARMQALMRRNSGLASQVISLPPFQVDLSRRELSINDEVIKLTAFEYTIMETLIRNNGKVVSKDSLMLQLYPDAELRESHTIDVLMGRLRKKIQAQYPQEVITTVRGQGYLFELR	8.69
MIKWPWKVQESAHQTALPWQEALSIPLLTCLTEQEQSKLVTLAERFLQQKRLVPLQGFELDSLRSCRIALLFCLPVLELGLEWLDGFHEVLIYPAPFVVDDEWEDDIGLVHNQRIVQSGQSWQQGPIVLNWLDIQDSFDASGFNLIIHEVAHKLDTRNGDRASGVPFIPLREVAGWEHDLHAAMNNIQEEIELVGENAASIDAYAASDPAECFAVLSEYFFSAPELFAPRFPSLWQRFCQFYQQDPLQRLHHANDTDSFSATNVH	2.19
MNTISSLETTDLPAAYHIEQRAHAFPWSEKTFASNQGERYLNFQLTQNGKMAAFAITQVVLDEATLFNIAVDPDYQRQGLGRALLEHLIDELEKRGVATLWLEVRASNAAAIALYESLGFNEATIRRNYYPTTDGREDAIIMALPISM [P0A944]	15.9

Exercise: Identify total protein half-life in vivo associated with the sequence `MLCVKNVSLRLPESRLLTNVNFTVDKGDIVTLMGPSGCGKSTLFSWMIGALAEQFSCTGELWLNEQRIDILPTAQRQIGILFQDALLFDQFSVGQNLLLALPATLKGNARRNAVNDALERSGLEGAFHQDPATLSGGQRARVALLRALLAQPKALLLDEPFSRLDVALRDNFRQWVFSEVRALAIPVVQVTHDLQDVPADSSVLDMAQWSENYNKLR`
Key: 10.8

Exercise: Identify total protein half-life in vivo associated with the sequence `MSKKIVLALGGNALGDDLAGQMKAVKITSQAIVDLIAQGHEVIVTHGNGPQVGMINQAFEAAAKTEAHSPMLPMSVCVALSQGYIGYDLQNALREELLSRGINKPVATLVTQVEVDANDPAFLNPTKPIGSFFTEQEAEQLTKQGYTLKEDAGRGYRRVVASPKPVDIIEKETVKALVDAGQVVITVGGGGIPVIREGNHLRGASAVIDKDWASARLAEMIDADMLIILTAVEKVAINFGKENEQWLDRLSLSDAERFIEEGHFAKGSMLPKVEAAASFARSRAGREALITVLSKAKEGIEGKTGTVICQ`
Key: 6.22

Exercise: Identify total protein half-life in vivo associated with the sequence MIPLQHGLILAAILFVLGLTGLVIRRNLLFMLIGLEIMINASALAFVVAGSYWGQTDGQVMYILAISLAAAEASIGLALLLQLHRRRQNLNIDSVSEMRG [P0AFE4]
Key: 11.7

Exercise: Identify total protein half-life in vivo associated with the sequence `MDVRQSIHSAHAKTLDTQGLRNEFLVEKVFVADEYTMVYSHIDRIIVGGIMPITKTVSVGGEVGKQLGVSYFLERRELGVINIGGAGTITVDGQCYEIGHRDALYVGKGAKEVVFASIDTGTPAKFYYNCAPAHTTYPTKKVTPDEVSPVTLGDNLTSNRRTINKYFVPDVLETCQLSMGLTELAPGNLWNTMPCHTHERRMEVYFYFNMDDDACVFHMMGQPQETRHIVMHNEQAVISPSWSIHSGVGTKAYTFIWGMVGENQVFDDMDHVAVKDLR`
Key: 10.2
